Data origin: PubChem BioAssay (NCI)

# Test system: OVCAR-8 ovarian
# Procedure Text: NCI-60 one-dose screen, 48 h
# Recorded Conditions: 10 µM
Compounds without any hit were thinned out: in the full panel of roughly 83,000, 20% have a hit. Active and inactive are the calls of the source. Rule for the calls: active = growth percent below 10; inactive = the rest.
// one of active, inactive, no free text

Reference set (5 entries):
| Compound | Discrete Label |
| --- | --- |
| Nc1nc2c(ncn2C2OC3COP(=O)(O)OC4C(COP(=O)(O)OC2C3O)OC(n2cnc3c(N)ncnc32)C4O)c(=O)[nH]1 (stereo not given) | inactive |
| CC(C)c1ncc(CO)n1Cc1c(Cl)cccc1Cl | inactive |
| O=C(c1ccccc1)C(Sc1ccccc1)c1ccccc1 (stereo not given) | inactive |
| C[n+]1c(/C=C/c2c[nH]c3ccccc23)ccc2ccccc21 | inactive |
| Cc1nc(N)sc1Sc1nc2ccc(Cl)cc2c(=O)n1-c1ccc(Oc2ccccc2)cc1 | inactive |

Hi, sorry to bother you, what did the test record for `CCCCCCCC/C=C/CCCCCCCCC1=NCCN1CCO` ?
inactive

Request: `CCOC(=O)c1ccc(NC(=O)Nc2nncs2)cc1`
inactive

Request: `[O-]c1c[n+](-c2ccc(Cl)cc2)no1`
inactive

Request: NS(=O)(=O)c1ccc(N2N=C(c3ccc(-c4ccccc4)cc3)CC2c2ccc(Cl)cc2)cc1 (stereo not given)
inactive

Request: `COc1cccc(C(=O)NNc2nc(N3CCN(C4CCCCC4)CC3)nc(N3CCN(C(c4ccccc4)c4ccccc4)CC3)n2)c1`
inactive
